# Run conditions: human gut metagenome, 24 h, 2 µM; also: call rule not given here
Experimental readout: Bacterial Biotransformation

Compound	Val
CN(CCOc1ccc(CC2SC(=O)NC2=O)cc1)c1ccccn1.O=C(O)/C=C\C(=O)O (stereo not given) [ROSIGLITAZONE MALEATE]	Compound metabolized
CCN(CC)CCNC(=O)c1ccc(NC(C)=O)cc1 [ACECAINIDE]	Compound NOT metabolized
CN1[C@@H]2CC[C@H]1C[C@@H](OC(=O)c1c[nH]c3ccccc13)C2 [TROPISETRON]	Compound NOT metabolized
CCN(CC)C(=O)C1(c2ccccc2)CC1CN (stereo not given)	Compound NOT metabolized
COC1=C(OC)C(=O)C(CCCCCCCCCCO)=C(C)C1=O [IDEBENONE]	Compound metabolized
O=C(NC(Cc1cc(=O)[nH]c2ccccc12)C(=O)O)c1ccc(Cl)cc1 (stereo not given) [REBAMIPIDE]	Compound metabolized
CCN1CCCC1CNC(=O)c1cc(S(=O)(=O)CC)c(N)cc1OC (stereo not given) [AMISULPRIDE]	Compound metabolized
CN1CCC[C@@H]1CCO[C@](C)(c1ccccc1)c1ccc(Cl)cc1.O=C(O)/C=C/C(=O)O [CLEMASTINE FUMARATE]	Compound metabolized
C[C@]12CCC(=O)C=C1[C@@H]1C[C@@H]1[C@H]1[C@@H]3[C@@H]4C[C@@H]4[C@@]4(CCC(=O)O4)[C@@]3(C)CC[C@@H]12 [DROSPIRENONE]	Compound metabolized
N#Cc1ccc2c(c1)N(CCCN1CCC(O)CC1)c1ccccc1S2 [PERICIAZINE]	Compound NOT metabolized
CN(C)CCc1c[nH]c2ccc(CS(=O)(=O)N3CCCC3)cc12 [ALMOTRIPTAN]	Compound NOT metabolized
CCN(C(C)=O)c1cccc(-c2ccnc3c(C#N)cnn23)c1 [ZALEPLON]	Compound metabolized
COc1ccc2c(c1)c(CC(=O)O)c(C)n2C(=O)c1ccc(Cl)cc1 [INDOMETHACIN]	Compound metabolized
CC(=O)CCCCn1c(=O)c2c(ncn2C)n(C)c1=O [PENTOXIFYLLINE]	Compound NOT metabolized
CN(C)CCOC(C)(c1ccccc1)c1ccccn1.O=C(O)CCC(=O)O (stereo not given) [DOXYLAMINE SUCCINATE]	Compound NOT metabolized
COc1ccc(C(CN(C)C)C2(O)CCCCC2)cc1 (stereo not given) [VENLAFAXINE]	Compound NOT metabolized
CC12CC3CC(C)(C1)CC(N)(C3)C2 [MEMANTINE]	Compound NOT metabolized
CCCC(C)(COC(N)=O)COC(=O)NC(C)C (stereo not given) [CARISOPRODOL]	Compound metabolized
CCCN(CCC)CCc1cccc2c1CC(=O)N2 [ROPINIROLE]	Compound NOT metabolized
CN(C)CCC=C1c2ccccc2COc2ccccc21 [DOXEPIN]	Compound metabolized
CCOC(=O)[C@H](CCc1ccccc1)N[C@@H](C)C(=O)N1Cc2ccccc2C[C@H]1C(=O)O	Compound metabolized
COC(=O)[C@H](c1ccccc1Cl)N1CCc2sccc2C1.O=S(=O)(O)O [CLOPIDOGREL BISULFATE]	Compound metabolized
Nc1nnc(-c2cccc(Cl)c2Cl)c(N)n1 [LAMOTRIGINE]	Compound NOT metabolized
CN[C@H]1CC[C@@H](c2ccc(Cl)c(Cl)c2)c2ccccc21 [SERTRALINE]	Compound metabolized
O=C1CN2Cc3c(ccc(Cl)c3Cl)N=C2N1 [ANAGRELIDE]	Compound NOT metabolized
Br.COc1ccc2c(c1)[C@]13CCCC[C@@H]1[C@H](C2)N(C)CC3.O [DEXTROMETHORPHAN HYDROBROMIDE]	Compound NOT metabolized
O=C1N=C([O-])NC1(c1ccccc1)c1ccccc1.[Na+] [PHENYTOIN SODIUM]	Compound metabolized
CC(C)c1nc(N(C)S(C)(=O)=O)nc(-c2ccc(F)cc2)c1/C=C/[C@@H](O)C[C@@H](O)CC(=O)[O-].CC(C)c1nc(N(C)S(C)(=O)=O)nc(-c2ccc(F)cc2)c1/C=C/[C@@H](O)C[C@@H](O)CC(=O)[O-].[Ca+2] [ROSUVASTATIN CALCIUM]	Compound metabolized
CC(=O)Oc1ccc(C(c2ccc(OC(C)=O)cc2)c2ccccn2)cc1 [BISACODYL]	Compound metabolized
CC(CCc1ccccc1)NCC(O)c1ccc(O)c(C(N)=O)c1 (stereo not given) [LABETALOL]	Compound NOT metabolized
CC(NC(C)(C)C)C(=O)c1cccc(Cl)c1 (stereo not given) [BUPROPION]	Compound NOT metabolized
CN(C)C(=O)Oc1cc(OC(=O)N(C)C)cc(C(O)CNC(C)(C)C)c1 (stereo not given) [BAMBUTEROL]	Compound NOT metabolized
CC(C)(C)NC[C@H](O)COc1nsnc1N1CCOCC1.O=C(O)/C=C\C(=O)O [TIMOLOL MALEATE]	Compound NOT metabolized
CN1CCN(C2=Nc3ccccc3Oc3ccc(Cl)cc32)CC1.O=C(O)CCC(=O)O [LOXAPINE SUCCINATE]	Compound NOT metabolized
CCOc1cc(CC(=O)N[C@@H](CC(C)C)c2ccccc2N2CCCCC2)ccc1C(=O)O [REPAGLINIDE]	Compound metabolized
